Biological target: T1, human IL-33 (R&D Systems, #3625-IL-010/CF) (human, UniProt O95760 112-270)
T1 sequence (looked up): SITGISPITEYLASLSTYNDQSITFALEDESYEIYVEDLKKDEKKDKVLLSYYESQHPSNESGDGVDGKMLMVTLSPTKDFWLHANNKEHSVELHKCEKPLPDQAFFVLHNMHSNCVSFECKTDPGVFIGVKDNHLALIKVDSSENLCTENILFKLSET
Experiment: cell-based or functional assay
Assay Metric: IC50, blocking of IFN-γ release from human PBMC induced by 260 pM hIL-33, donor #603486 (M)
Provide the reading as a plain figure in M.

- Binder: "H4H9665P (antibody, human IgG4, V domains shown, Human IgG4 Fc (H4H)) VH: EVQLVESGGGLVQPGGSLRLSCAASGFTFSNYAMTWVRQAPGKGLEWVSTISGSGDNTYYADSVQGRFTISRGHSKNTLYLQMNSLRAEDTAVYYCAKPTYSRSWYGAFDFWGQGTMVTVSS VL: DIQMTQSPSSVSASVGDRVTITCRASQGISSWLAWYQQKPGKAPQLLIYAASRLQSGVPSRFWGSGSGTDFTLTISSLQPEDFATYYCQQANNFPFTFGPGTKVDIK"
  Assay Result: "1.04e-08"
- Binder: "H4H9664P (antibody, human IgG4, V domains shown, Human IgG4 Fc (H4H)) VH: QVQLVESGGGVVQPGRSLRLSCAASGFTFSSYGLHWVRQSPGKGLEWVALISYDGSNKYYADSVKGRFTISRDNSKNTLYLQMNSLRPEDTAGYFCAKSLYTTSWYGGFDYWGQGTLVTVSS VL: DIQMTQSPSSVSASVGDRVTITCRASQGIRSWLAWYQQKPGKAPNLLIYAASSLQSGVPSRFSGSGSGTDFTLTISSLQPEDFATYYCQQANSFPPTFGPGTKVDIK"
  Assay Result: "3.98e-09"

// next entry
Need IC50, blocking of IFN-γ release from human PBMC induced by 260 pM hIL-33, donor #603486 of H4H9662P (antibody, V domains shown, Human IgG4 Fc (H4H)) VH: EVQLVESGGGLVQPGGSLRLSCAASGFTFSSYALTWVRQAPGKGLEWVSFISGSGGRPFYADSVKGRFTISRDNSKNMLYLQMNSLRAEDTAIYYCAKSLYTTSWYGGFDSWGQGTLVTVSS VL: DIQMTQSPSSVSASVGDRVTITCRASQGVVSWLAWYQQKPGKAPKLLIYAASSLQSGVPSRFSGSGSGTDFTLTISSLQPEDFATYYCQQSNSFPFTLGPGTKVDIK , thanks.
9.64e-10
